Tested on: K-562 leukemia
METHOD: NCI-60 one-dose screen, 48 h (100 = growth as untreated, 0 = no growth, -100 = all killed)
CONDITION_NOTES: 10 µM unless noted
This is part of a sample that, as a whole, favours compounds with a hit. Of some 83,000 tested, about 20% had one in any assay.
VALUE_TYPE: growth (%)
Your answer should be a plain number; it is taken to be in %.

Some entries whose results are on file:
1) CCc1ccccc1-c1nc(CN[C@@H]2C[C@@H]3C[C@H]([C@H]2C)C3(C)C)c(C)o1
12.2
2) Cc1cccc(/C=C/c2ccc(NC(=S)NCCCCN(C)C)cc2)c1
3.99
3) O=Cc1cncc(-c2ccc3ncnc(N4CCc5cc(F)c(Cl)cc54)c3c2)c1
35.5

Consider CC1=C(C(=O)Nc2ccccc2)C(c2cccc(Cl)c2Cl)n2c(nc3ccccc32)N1 (stereo not drawn) . Its measured growth is 26.5

###

Tested on: PC-3 prostate
METHOD: NCI-60 one-dose screen, 48 h (100 = growth as untreated, 0 = no growth, -100 = all killed)
CONDITION_NOTES: 10 µM unless noted
About 83,000 compounds went through this panel and 20% of them were active in at least one assay; those are over-represented in the sample as a whole.
Record yes (1) whenever growth is at 60% or higher; record no (0) when lower.

Use the examples below as a reference point.
1) CN1C(=O)C(O)(CC(=O)c2cc3ccccc3oc2=O)c2ccccc21 (stereo not given)
yes (1)
2) COc1c(B(O)O)cc(F)cc1-c1nc2ccc3[nH]ncc3c2c2c1COCC2
yes (1)
3) O=C1Nc2cc(-c3ccc(NS(=O)(=O)c4ccc(C(F)(F)F)cc4)cc3)ccc2/C1=C/c1ccc[nH]1
no (0)
4) N#Cc1cc(-c2ccc3ncnc(N4CCc5cc(F)c(Cl)cc54)c3c2)cnc1N
no (0)
5) COc1ccc2oc(=O)c(-c3csc(N/N=C(\C)c4cc(OC)c(OC)c(OC)c4)n3)cc2c1
yes (1)

// inclusive: growth at least 60%? input: `Nc1cc(-c2c[nH]c3ccc(F)cc23)nc2cc(-c3c[nH]c4ccccc34)nn12`
no (0)

// inclusive: growth at least 60%? input: `Cc1ccc(S(=O)(=O)N(CCn2ccnc2[N+](=O)[O-])CCn2ccnc2[N+](=O)[O-])cc1`
yes (1)

// inclusive: growth at least 60%? input: `CC[C@]12C=CCN3CC[C@@]4(c5ccc(OC)cc5N(C)[C@H]4[C@@](O)(C(=O)OC)[C@@H]1OC(=O)CCC[P+](c1ccc(OC)cc1)(c1ccc(OC)cc1)c1ccc(OC)cc1)[C@@H]32`
no (0)

// inclusive: growth at least 60%? input: `Cc1oc(-c2ccccc2)nc1CN[C@@H]1C[C@@H]2C[C@H]([C@H]1C)C2(C)C`
no (0)

###

Test system: MCF7 breast
METHOD: NCI-60 one-dose screen, 48 h (100 = growth as untreated, 0 = no growth, -100 = all killed)
CONDITION_NOTES: 10 µM unless noted
About 83,000 compounds went through this panel and 20% of them were active in at least one assay; those are over-represented in the sample as a whole.
Threshold-based label: growth under 20% gives Condition met, growth not under 20% gives Condition not met.

Use the examples below as a reference point.
1. CN1CCc2c(sc3ncnc(N/N=C/c4cccc(Cl)c4Cl)c23)C1
Condition met
2. COc1cc(C2CC(c3cc(OC)c(OC)c(OC)c3)=Nc3c(N)nc(N)nc3N2)ccc1Oc1nc(Nc2ccc(F)cc2)nc(N(C)C)n1 (stereo not drawn)
Condition not met
3. Clc1ccc(CNc2nc(SCCN3CCOCC3)nc3c2cnn3CC(Cl)c2ccc(Br)cc2)cc1 (stereo not drawn)
Condition met
4. Cc1nc2sccn2c1-c1nnc(SCc2ccccc2)o1
Condition not met
5. CC[C@]12C=CCN3CC[C@]4(C(=C(C(=O)OC)C1)Nc1cc(OC)c([C@@H]5[C@H]6O[C@H]6[C@@]6(CC)CC(C(=O)OC)=C7Nc8cc(O)ccc8[C@@]78CCN5[C@@H]68)cc14)[C@@H]32
Condition met

Does this compound meet the criterion growth < 20%? `COc1ccc(N=Nc2c(N)nn3c(-c4ccc(OC)c(OC)c4)ccnc23)cc1`
Condition not met

Does this compound meet the criterion growth < 20%? `c1ccc(CSc2nnc(-c3ccc4nc(-c5ccccc5)[nH]c4c3)o2)cc1`
Condition met

Does this compound meet the criterion growth < 20%? `CN1CCN(C(=O)Oc2cc3c(c4ccccc24)[C@H](CCl)CN3C(=O)c2cc3cc(OCCCN4CCC4)ccc3[nH]2)[C@@H]2CSSC[C@H]21`
Condition met

###

Tested on: HOP-92 NSCLC
METHOD: NCI-60 one-dose screen, 48 h (100 = growth as untreated, 0 = no growth, -100 = all killed)
CONDITION_NOTES: 10 µM unless noted
The panel holds about 83,000 compounds, 20% with a hit somewhere; the sample as a whole holds those more often.
Threshold-based label: growth under 30% gives yes (1), growth not under 30% gives no (0).

1) Cc1cc(C)c2[nH]c(=O)c(C(c3nnnn3Cc3ccc4c(c3)OCO4)N3CCN(C)CC3)cc2c1 (stereo not given)
no (0)
2) COc1cccc(/C=C/c2nc3ccccc3c(=O)n2CC(=O)Nc2ccccc2)c1
yes (1)
3) CCCCNC(=S)Nc1ccc(OCc2nc3ccc(Cl)cc3[nH]2)cc1
yes (1)
4) O=c1[nH]c2ccccc2cc1CSc1ccccc1Nc1nccc(-c2ccc3c(c2)OCO3)n1
no (0)

# evaluate next
Does this compound meet the criterion growth < 30%? `Cn1cc(-c2cc(N)n3nc(-c4c[nH]c5ccc(F)cc45)cc3n2)c2cc(Br)cnc21`
yes (1)

###

Test system: SW-620 colon
METHOD: NCI-60 one-dose screen, 48 h (100 = growth as untreated, 0 = no growth, -100 = all killed)
CONDITION_NOTES: 10 µM unless noted
Compounds without any hit were thinned out: in the full panel of roughly 83,000, 20% have a hit.
VALUE_TYPE: growth (%)
Your answer should be a plain number; it is taken to be in %.

Some entries whose results are on file:
1. COc1cccc(C(N)=Nc2ccc(OCCCCCCCCn3cncn3)cc2)c1
21.2
2. CCCCC[C@@H]1C/C=C(\C)[C@@H](O)C(C)(C)C(=O)[C@@H](C)/C=C(\C)[C@@H]2C[C@H](O)C[C@](O)(CC(=O)O1)O2
47.3
3. Cc1ccc(C(=O)C[n+]2cccc3c4ccccc4ccc32)cc1
19.5
4. O=C(NC(=S)N1CCN(c2ncnc3c2cnn3-c2ccccc2)CC1)c1ccc(F)cc1
76.6

Consider `CCC(=O)c1cc(C(=O)OC)c2ccc3c4ccccc4ccc3n12` . Its measured growth is 84.4

###

System: SW-620 colon
METHOD: NCI-60 one-dose screen, 48 h
CONDITION_NOTES: 10 µM unless noted
About 83,000 compounds went through this panel and 20% of them were active in at least one assay; those are over-represented in the sample as a whole. Activity calls are given as the source filed them. The calls were made as follows: active = growth percent below 10; inactive = the rest.
I would appreciate it if you answered using one of these outcomes: yes = active, no = inactive

Use the examples below as a reference point.
1. COc1cc(C=O)ccc1OC(=O)c1cc(-c2ccc(C)cc2)n(-c2ccc(S(C)(=O)=O)cc2)n1
no
2. COc1ccc2c(c1)c(-c1cc(N)n3nc(-c4c[nH]c5ccccc45)cc3n1)cn2C
yes
3. Cc1nc(N)ncc1-c1ccc2ncnc(N3CCc4cc(F)c(Cl)cc43)c2c1
no
4. Cn1cc(-c2cc(N)n3nc(-c4c[nH]c5ccc(F)cc45)cc3n2)c2cccnc21
yes
5. CN1CCN(c2ccc3c4c(cccc24)C(=O)N(c2cccc(-c4nn(-c5ccccc5)cc4-c4nc5ccccc5s4)c2)C3=O)CC1
no
6. COc1ccc(N=Nc2c(N)nn3c(N)c(C#N)c(-c4ccc(C)cc4)nc23)cc1
no
7. COc1cc(CNC(=O)C[C@H](C)CCC=C(C)C)ccc1OCc1cn(-c2ccccc2F)nn1
no
8. O=C(N/N=C/c1ccc(-c2cccc([N+](=O)[O-])c2)s1)c1[nH]c2ccc(Br)cc2c1-c1ccccc1
no

# evaluate next
What is the recorded call for this molecule in the test? `COc1ccc(-c2cc(-c3ccccc3)c(C#N)c(=O)[nH]2)cc1S(N)(=O)=O`
no

###

Below, each entry is listed alongside its reported growth.
Tested on: UO-31 renal
METHOD: NCI-60 one-dose screen, 48 h (100 = growth as untreated, 0 = no growth, -100 = all killed)
CONDITION_NOTES: 10 µM unless noted
This is part of a sample that, as a whole, favours compounds with a hit. Of some 83,000 tested, about 20% had one in any assay. The source made the active and inactive calls. The calls were made as follows: active = growth percent below 10; inactive = the rest.

Some entries whose results are on file:
1) COc1ccc2[nH]cc(-c3cc4nc(-c5cn(C)c6ncc(Br)cc56)cc(N)n4n3)c2c1
-69.1% (active)
2) Cc1ccc(C(=O)Nc2cccc(C(=O)NC(=S)Nc3ccc(S(N)(=O)=O)cc3)c2)cc1
69.4% (inactive)
3) O=C(N/N=C/c1c[nH]c2ccccc12)Nc1ccc(F)c(Cl)c1
37.1% (inactive)
4) COc1ccc(-c2nc3ccc(-c4nnc(SCc5ccccc5)o4)cc3[nH]2)cc1OC
-8.65% (active)
5) COC(=O)CSC1=C(C)C(=O)C(OC)=C(OC)C1=O
80.7% (inactive)

Consider `Cc1nn(-c2ccccc2)c2nc(C)n(C(=O)N/N=C/c3ccccc3)c(=O)c12` . Its measured growth is 74.1% (inactive)

Consider `CC(C)(C)C(=O)c1c2c(c3ccc4c5ccccc5ccc4n13)C(=O)c1ccccc1C2=O` . Its measured growth is 67.9% (inactive)

Consider `COc1ccc2[nH]c(O)c(N=Nc3nc(-c4ccc(C#N)cc4)cs3)c2c1` . Its measured growth is 18.3% (inactive)
